- TGT: Interstitial collagenase (Homo sapiens)
- Sequence (P03956 whole entry): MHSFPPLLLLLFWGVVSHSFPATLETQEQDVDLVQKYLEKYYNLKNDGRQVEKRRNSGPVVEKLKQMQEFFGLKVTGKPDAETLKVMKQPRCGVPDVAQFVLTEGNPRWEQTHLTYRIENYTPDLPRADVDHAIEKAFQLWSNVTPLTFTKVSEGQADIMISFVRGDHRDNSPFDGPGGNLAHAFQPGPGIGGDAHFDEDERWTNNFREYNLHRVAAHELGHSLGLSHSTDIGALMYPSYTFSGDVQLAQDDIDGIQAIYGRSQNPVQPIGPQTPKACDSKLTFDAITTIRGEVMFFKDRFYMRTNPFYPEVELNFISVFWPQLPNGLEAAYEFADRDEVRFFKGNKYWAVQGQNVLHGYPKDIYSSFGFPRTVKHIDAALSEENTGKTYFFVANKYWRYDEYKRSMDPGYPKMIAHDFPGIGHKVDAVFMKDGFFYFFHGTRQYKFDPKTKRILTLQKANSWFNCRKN
- PROTOCOL: biochemical;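 also: MMP-1 enzyme inhibition assay using a peptide substrate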; also: in other assays of this panel Not Active means under 50% inhibition at 10 µM
- Type: tissue-based, Rheumatoid synovial fibroblasts
RECORDED_METRIC: IC50

These recorded examples may help you get a feel for the data.
{"MOLECULE": "CCN1CCN(c2cc3c(cc2F)c(=O)c(C(=O)O)cn3C2CC2)CC1 [ENROFLOXACIN]", "RECORDED_METRIC": "IC50", "RESULT": "Not Active"}
{"MOLECULE": "CC[C@H](C)[C@@H](CO[C@@H](Cc1ccccc1)C(=O)N[C@@H](CCS(C)(=O)=O)C(=O)OC(C)C)NC[C@@H](N)CS", "RECORDED_METRIC": "IC50", "RESULT": "Not Active"}
{"MOLECULE": "CN(CCOc1ccc(C[C@H](Nc2ccccc2C(=O)c2ccccc2)C(=O)O)cc1)c1ccccn1", "RECORDED_METRIC": "IC50", "RESULT": "Not Active"}
{"MOLECULE": "COc1ccc(Cl)cc1C(=O)NCCc1ccc(S(=O)(=O)NC(=O)NC2CCCCC2)cc1 [GLYBURIDE]", "RECORDED_METRIC": "IC50", "RESULT": "Not Active"}
{"MOLECULE": "Cc1[nH]c(=O)c(C#N)cc1-c1ccncc1 [MILRINONE]", "RECORDED_METRIC": "IC50", "RESULT": "Not Active"}
{"MOLECULE": "CO[C@@H]1[C@@H](OC)[C@H](C)[C@@](O)(CC(=O)O)O[C@H]1[C@H](C)[C@H]1O[C@@]2(CC[C@@](C)([C@H]3CC[C@@](C)([C@@H]4O[C@@H]([C@H]5O[C@](C)(O)[C@H](C)C[C@@H]5C)C[C@@H]4O[C@@H]4C[C@H](OC)[C@@H](OC)[C@H](C)O4)O3)O2)C[C@H](O)[C@H]1C.N [MADURAMICIN]", "RECORDED_METRIC": "IC50", "RESULT": "Not Active"}
{"MOLECULE": "CC1(COc2ccc(CC3SC(=O)NC3=O)cc2)CCCCC1 (stereo unspecified) [CIGLITAZONE]", "RECORDED_METRIC": "IC50", "RESULT": "Not Active"}
{"MOLECULE": "O=C(O)CNCP(=O)(O)O [GLYPHOSATE]", "RECORDED_METRIC": "IC50", "RESULT": "Not Active"}
{"MOLECULE": "CC(O)C(=O)O (stereo unspecified) [LACTIC ACID]", "RECORDED_METRIC": "IC50", "RESULT": "Not Active"}
{"MOLECULE": "CC[C@H]1OC(=O)[C@H](C)[C@@H](O[C@H]2C[C@@](C)(OC)[C@@H](O)[C@H](C)O2)[C@H](C)[C@@H](O[C@@H]2O[C@H](C)C[C@H](N(C)C)[C@H]2O)[C@](C)(O)C[C@@H](C)C(=O)[C@H](C)[C@@H](O)[C@]1(C)O [ERYTHROMYCIN]", "RECORDED_METRIC": "IC50", "RESULT": "Not Active"}

Could you tell me IC50 for each of these molecules? They are listed below.
1. CC(C)(c1ccc(O)cc1)c1ccc(O)cc1 [BISPHENOL A]
2. O=C(NCCN1CCOCC1)c1ccc(Cl)cc1 [MOCLOBEMIDE]
3. C#C[C@]1(O)CC[C@H]2[C@@H]3[C@H](C)CC4=C(CCC(=O)C4)[C@H]3CC[C@@]21C [TIBOLONE]
4. Oc1ncnc2[nH]ncc12 [ALLOPURINOL]
5. O=c1[nH]cnc2c1ncn2[C@H]1CC[C@@H](CO)O1 [DIDANOSINE]
6. O=[As][O-].[Na+] [SODIUM ARSENITE]
7. C[N+](C)(C)CCOP(=O)([O-])OC[C@H](O)CO

Found:
Not Active
Not Active
Not Active
Not Active
Not Active
Not Active
Not Active

Could you tell me IC50 for each of these molecules? They are listed below.
1. CCCCCCNC(=O)n1cc(F)c(=O)[nH]c1=O [CARMOFUR]
2. CCC(C)(C)C(=O)O[C@H]1C[C@@H](C)C=C2C=C[C@H](C)[C@H](CC[C@@H]3C[C@@H](O)CC(=O)O3)[C@H]21 [SIMVASTATIN]
3. CCO [ALCOHOL]
4. C[N+](C)(C)CCOC(N)=O.[Cl-] [CARBACHOL]
5. Cc1ccc(Cl)c(Nc2ccccc2C(=O)O)c1Cl [MECLOFENAMIC ACID]
6. Nc1ccc(Cc2ccc(N)cc2)cc1
7. O=C1CC[C@@]2(O)[C@H]3Cc4ccc(O)c5c4[C@@]2(CCN3CC2CC2)[C@H]1O5 [NALTREXONE]

Found:
1: Not Active; 2: Not Active; 3: Not Active; 4: Not Active; 5: Not Active; 6: Not Active; 7: Not Active
